Data origin, for the record: patent US8026218

biological target: µ opioid receptor of the guinea pig isolated ileum (guinea pig) (UniProt P97266); assay: cell-based or functional assay
Sequence (P97266 whole entry): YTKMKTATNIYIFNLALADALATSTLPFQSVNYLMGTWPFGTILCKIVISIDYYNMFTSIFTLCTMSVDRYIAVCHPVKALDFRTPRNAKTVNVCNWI
Square brackets hold non-standard residues; d marks the D form. Primed or numbered codes have the meaning given here. Ends that are not written are not given here. O‑Bzl(CF3)2(3) = C-terminal O-Bzl(CF3)2 ester; Abu = CC[C@H](N)C(=O)O; GABA = NCCCC(=O)O; βAla = NCCC(=O)O
measurementKind: GPI/LMMP µ-agonist IC50 (nM)
Give bare numbers, in nM.

binder: Y[dA]GF[βAla]W-{O‑Bzl(CF3)2(3)} [Tyr-DAla-Gly-Phe-β-Ala-Trp-O-Bzl(CF3)2 (NP32)]
val: 435

Items follow; give GPI/LMMP µ-agonist IC50 for each.
1. Y[dA]GF[Abu]W-{O‑Bzl(CF3)2(3)} [Tyr-DAla-Gly-Phe-α-Abu-Trp-O-Bzl(CF3)2 (NP33)]
2. Y[dA]GFAW-{O‑Bzl(CF3)2(3)} [Tyr-DAla-Gly-Phe-Ala-Trp-O-Bzl(CF3)2 (NP31)]
3. Y[dA]GF[GABA]W-{O‑Bzl(CF3)2(3)} [Tyr-DAla-Gly-Phe-γ-Abu-Trp-O-Bzl(CF3)2 (NP34)]
4. Y[dA]GF[dA]W-{O‑Bzl(CF3)2(3)} [Tyr-DAla-Gly-Phe-D-Ala-Trp-O-Bzl(CF3)2 (NP40)]
5. Y[dA]GFGW-{O‑Bzl(CF3)2(3)} [Tyr-DAla-Gly-Phe-Gly-Trp-O-Bzl(CF3)2 (NP30)]

[A]
[600, 401, 200, 528, 25.7]
